The measurements presented in this section are drawn from paper PMC4409382.

Molecular target: T1, 14-3-3ζ (human, full-length) (human, UniProt P63104 1-245)
T1 construct: N-terminal glycine retained after TEV cleavage of the His tag; 14-3-3ζ, human, ORF bought from GeneCopoeia, in Gateway pDEST17; full-length; Dimer in the crystal; the ITC stoichiometry counts on the 14-3-3 monomer; also called WT 14-3-3ζ; source: E. coli BL21 (DE3) pLysS, purified (Ni Sepharose, TEV cleavage, second Ni Sepharose pass); not shown: His tag, N-terminal, cleaved
T1 sequence: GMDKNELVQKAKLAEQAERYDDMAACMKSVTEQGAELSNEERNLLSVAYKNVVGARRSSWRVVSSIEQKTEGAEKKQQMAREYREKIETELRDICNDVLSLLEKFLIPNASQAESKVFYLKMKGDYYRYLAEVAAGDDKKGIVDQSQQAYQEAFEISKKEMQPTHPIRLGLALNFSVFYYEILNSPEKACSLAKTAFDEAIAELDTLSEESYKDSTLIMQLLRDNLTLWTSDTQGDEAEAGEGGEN
Assay: ITC; VP-ITC, 25°C; ~1-2 mM peptide titrated in 5 uL aliquots into ~100-200 uM 14-3-3ζ in the cell; 50 mM sodium phosphate, 100 mM NaCl, 1 mM DTT, pH 6.8; one-site model; in duplicate
Details: both partners purified
Square brackets hold non-standard residues; d marks the D form. Ends that are not written are not given here. pS = N[C@@H](COP(=O)(O)O)C(=O)O
assayReadout: stoichiometry N

{"binder": "KTPPRKSA[pS]LPNLHSLDR (Chibby (Cby), human, residues 12-29 with S22P; free NH2 and COOH ends; also called Cby 18-mer S22P; source: synthetic peptide, bought: TUFTS University Core Facility) [pCby S22P 18-mer]", "recordedMeasurement": 1.05}
{"binder": "KTPPRKSA[pS]LSNAHSLDR (Chibby (Cby), human, residues 12-29 with L24A; Not in the methods' list of peptides; also called Cby L24A 18-mer; source: synthetic peptide) [Cby 18-mer L24A (phosphorylated)]", "recordedMeasurement": 0.99}
{"binder": "KTPPRKSA[pS]LS-NH2 (N-terminus assumed; SMILES CC(C)C[C@H](NC(=O)[C@H](COP(=O)(O)O)NC(=O)[C@H](C)NC(=O)[C@H](CO)NC(=O)[C@H](CCCCN)NC(=O)[C@H](CCCNC(=N)N)NC(=O)[C@@H]1CCCN1C(=O)[C@@H]1CCCN1C(=O)[C@@H](NC(=O)[C@@H](N)CCCCN)[C@@H](C)O)C(=O)N[C@@H](CO)C(N)=O, Chibby (Cby), human, residues 12-22; free NH2 end; source: synthetic peptide, bought: TUFTS University Core Facility) [pCby 11-mer]", "recordedMeasurement": 0.95}
